Data origin: PubChem BioAssay

Attribute: viability
Assay: reversal of MRP1-mediated doxorubicin resistance, pilot screen, H69AR cells, doxorubicin co-treatment (AID 601)
Details: H69AR cells + 2 uM doxorubicin, CellTiter-Glo, 72 h; measured here: viability with 2 uM doxorubicin; at 10 µM; stronger effect = lower value
Give just the number in %; leave the unit off.

Incoming: Report viability for O=C(c1ccc(COc2c(F)c(F)c(F)c(F)c2F)o1)N1CCOCC1
Outgoing: 80.3

Incoming: Give me measured viability, please, for this compound: CC1CCCC(C(=O)OCc2ccccc2)N1 (stereo unspecified)
Outgoing: 91

Incoming: Complete the entry with viability for CCc1nn2c(N3CCOCC3)cc(C)nc2c1-c1ccc(F)cc1
Outgoing: 62

Incoming: Let me know recorded viability for CCCCn1c(SCC(=O)Nc2cc(C)on2)nnc1-c1cccnc1 , thanks.
Outgoing: 106

Incoming: Given COC(=O)c1cc(Br)c(=O)n(Cc2cccnc2)c1 , respond with its viability.
Outgoing: 80.3

Incoming: Fill in reported viability for this entry: O=c1c2[nH]c3ccccc3c2ncn1CCCn1ccnc1
Outgoing: 95.7

Incoming: Give the reported viability for this compound. CCC(=O)c1ccc(OC(=O)c2ccc(Br)o2)cc1
Outgoing: 99.9

Incoming: Let me know recorded viability for Cc1ccc(S(=O)(=O)N2CCCC(C(=O)NC3=NCCS3)C2)cc1 (stereo unspecified) , thanks.
Outgoing: 85.4

Incoming: Consider the compound COc1ccc2[nH]c(=O)c(CN(Cc3cccs3)S(=O)(=O)c3cccc4nsnc34)cc2c1 and give its recorded viability.
Outgoing: 5.45

Incoming: Using the record for Cc1nnc(NCCc2ccccc2)n(N)c1=O , state its measured viability.
Outgoing: 97.8

Incoming: Return reported viability. Input compound: Cc1cc(C(F)(F)F)nn1Cc1ccc(C(=O)NCc2ccco2)o1
Outgoing: 89.5
